- target-system: CRBN (Homo sapiens, UniProt Q96SW2)
- Construct: purchased Cisbio 64BDCRBNPEG
- assay-info: CRBN binding assay (HTRF competition)
- condition-info: GST-labeled CRBN WT protein, thalidomide-red competition, 3 hours; read-out: HTRF CRBN IC50
value-kind: IC50 (nM)

Cc1nc(N2CCN(Cc3ccc(Cc4ccc5c6c(cccc46)C(=O)N5[C@H]4CCC(=O)NC4=O)cc3)CC2)cc(-n2cnc(C(F)(F)F)c2)n1 :: 27

(A) O=C1CCC(N2C(=O)c3cccc4c(Cc5ccc(CN6CCN(c7ccnc(-n8cnc(C(F)(F)F)c8)n7)CC6)cc5)ccc2c34)C(=O)N1 (stereo not drawn)
(B) Cc1nnc(-c2cccc(N3CCN(Cc4ccc(Cc5ccc6c7c(cccc57)C(=O)N6C5CCC(=O)NC5=O)cc4)CC3)n2)s1 (stereo not drawn)
Query: Please indicate which entry, A or B , has the lower recorded IC50 value. The response must carry the label of the picked entry.
Reply: B
(B: 20 nM, A: 38 nM)

###

- target-system: IKZF1 (Homo sapiens, UniProt Q13422+Q96SW2)
- Construct: NCI-H929 cells were inoculated into a 96-well plate at 100,000 cells per well and cultured overnight; endogenous in cells; host or cells: NCI-H929
- assay-info: Protein degradation assay (In-Cell Western), IKZF1
- Assay type: cell-based
- condition-info: NCI-H929 cells, 24 hours
value-kind: Dmax (%)

O=C1CC[C@H](N2Cc3c(OCc4ccc(CN5CCN(c6ccnc(-n7ccnc7)n6)CC5)cc4)cccc3C2=O)C(=O)N1 :: 75.8
O=C1CCC(N2C(=O)c3cccc4c(Cc5ccc(CN6CCN(C(=O)c7ccnc(-n8ccnc8)n7)CC6)cc5)ccc2c34)C(=O)N1 (stereo not shown) :: 68.4
O=C1CCC(N2C(=O)c3cccc4c(Cc5ccc(CN6CCN(c7ccnc(-n8cnc(C(F)(F)F)c8)n7)CC6)cc5)ccc2c34)C(=O)N1 (stereo not shown) :: 60
Cc1ncc(-c2nc(N3CCN(Cc4ccc(Cc5ccc6c7c(cccc57)C(=O)N6C5CCC(=O)NC5=O)cc4)CC3)cc(C(F)(F)F)n2)s1 (stereo not shown) :: 57.1
O=C1CCC(N2C(=O)c3cccc4c(Cc5ccc(CN6CCN(C(=O)c7cccc(-n8ccnc8)n7)CC6)cc5)ccc2c34)C(=O)N1 (stereo not shown) :: 73.6
O=C1CCC(N2C(=O)c3cccc4c(Cc5ccc(CN6CCN(c7ccnc(-n8ccnc8)n7)CC6)cc5)ccc2c34)C(=O)N1 (stereo not shown) :: 73.6
Cc1ncn(-c2cccc(N3CCN(Cc4ccc(Cc5ccc6c7c(cccc57)C(=O)N6C5CCC(=O)NC5=O)cc4)CC3)n2)n1 (stereo not shown) :: 65.8

###

- target-system: IKZF1 (Homo sapiens, UniProt Q13422+Q96SW2)
- Construct: NCI-H929 cells were inoculated into a 96-well plate at 100,000 cells per well and cultured overnight; endogenous in cells; host or cells: NCI-H929
- assay-info: Protein degradation assay (In-Cell Western), IKZF1
- Type: cell-based
- condition-info: NCI-H929 cells, 24 hours
value-kind: Dmax (%)

Cc1nc(N2CCN(Cc3ccc(Cc4ccc5c6c(cccc46)C(=O)N5[C@H]4CCC(=O)NC4=O)cc3)CC2)cc(-n2cnc(C(F)(F)F)c2)n1 [Example 30] :: 74.1
Cc1nnc(-c2cccc(N3CCN(Cc4ccc(Cc5ccc6c7c(cccc57)C(=O)N6C5CCC(=O)NC5=O)cc4)CC3)n2)s1 (stereo not drawn) [Example 22] :: 65.3
Cc1nc(N2CCN(Cc3ccc(Cc4ccc5c6c(cccc46)C(=O)N5[C@@H]4CCC(=O)NC4=O)cc3)CC2)cc(-n2cnc(C(F)(F)F)c2)n1 [Example 31] :: 77
